These measurements were taken from patent US20110237779A1.

Target: T1, human tissue factor (human, UniProt P13726 33-251, limits assumed)
T1 construct: construct not described; also called TF
Assay: phage ELISA, solution competition: Fab-phage incubated with serially diluted TF, unbound phage captured on TF-coated wells; IC50 used as affinity estimate
List of IC50 values.
Remember to quote the unit after the number.

Use these answered entries as a reference point.
D3 library clone, CDR-L1 KGQRVLNSWLS (Fab, V domains shown, Changes against the D3 direct graft (Kabat): VL A25G, S26Q, D28V, I29L, K30N, Y32W; copies: 1 + 1) VH: EVQLVESGGGLVQPGGSLRLSCAASGFNIKDYYMHWVRQAPGKGLEWVGWIDPENGNTIYDPKFQDRFTISADTSKNTAYLQMNSLRAEDTAVYYCARDTAAYFDYWGQGTLVTVSS VL: DIQMTQSPSSLSASVGDRVTITCKGQRVLNSWLSWYQQKPGKAPKLLIYYATSLADGVPSRFSGSGSGTDFTLTISSLQPEDFATYYCLQHGESPFTFGQGTKVEIK	21 nM
D3 library clone, CDR-L1 NASLVINRWLS (Fab, V domains shown, Changes against the D3 direct graft (Kabat): VL K24N, R27L, D28V, K30N, S31R, Y32W; copies: 1 + 1) VH: EVQLVESGGGLVQPGGSLRLSCAASGFNIKDYYMHWVRQAPGKGLEWVGWIDPENGNTIYDPKFQDRFTISADTSKNTAYLQMNSLRAEDTAVYYCARDTAAYFDYWGQGTLVTVSS VL: DIQMTQSPSSLSASVGDRVTITCNASLVINRWLSWYQQKPGKAPKLLIYYATSLADGVPSRFSGSGSGTDFTLTISSLQPEDFATYYCLQHGESPFTFGQGTKVEIK	16 nM

Exam item: Note down IC50 recorded for D3 library clone, CDR-L2 YAPRRAR (Fab, V domains shown, Changes against the D3 direct graft (Kabat): VL T52P, S53R, L54R, D56R; Siblings 2; copies: 1 + 1) VH: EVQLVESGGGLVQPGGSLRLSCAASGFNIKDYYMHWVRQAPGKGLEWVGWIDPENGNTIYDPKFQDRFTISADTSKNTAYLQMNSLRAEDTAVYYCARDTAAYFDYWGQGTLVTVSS VL: DIQMTQSPSSLSASVGDRVTITCKASRDIKSYLSWYQQKPGKAPKLLIYYAPRRARGVPSRFSGSGSGTDFTLTISSLQPEDFATYYCLQHGESPFTFGQGTKVEIK
Marked response: 11 nM
